assay-system: full-length H5 A/Vietnam/1203/2004 HA expressed on 293T cells (influenza A virus A/Vietnam/1203/2004 (H5N1))
measurement-protocol: flow cytometry, HA-expressing 293T
reported-metric: max. MFI
Reply with the number, then its unit.

Please review the entries below; each comes with its answer.
S01 (antibody, V domains shown) VH: EVQLVESGGGLVQPGGSLRLSCAASGFTINNYGIHWVRQAPGKGLEWVASIWPSGGYTSYADSVKGRFTISADTSKNTAYLQMNSLRAEDTAVYYCARFGLGDYDIMDYWGQGTLVTVSS VL: DIQMTQSPSSLSASVGDRVTITCRASQDVWGYVAWYQQKPGKAPKLLISFPSSLYSGVPSRFSGSGSGTDFTLTISSLQPEDFATYYCQQYYDGPVTFGQGTKVEIKR :: 306 MFI
P48 (antibody, V domains shown) VH: EVQLVESGGGLVQPGGSLRLSCAASGFTINSWGIHWVRQAPGKGLEWVAGIGPSWGYTSYADSVKGRFTISADTSKNTAYLQMNSLRAEDTAVYYCARFGDGDFDLMDYWGQGTLVTVSS VL: DIQMTQSPSSLSASVGDRVTITCRASQDVWSYVAWYQQKPGKAPKLLISYTSYLYSGVPSRFSGSGSGTDFTLTISSLQPEDFATYYCQQYFNWPITFGQGTKVEIKR :: 474 MFI
P25 (antibody, V domains shown) VH: EVQLVESGGGLVQPGGSLRLSCAASGFTISNGGIHWVRQAPGKGLEWVAGIGPYGGYTYYADSVKGRFTISADTSKNTAYLQTNSLRAEDTAVYYCARFYGYSGIMDYWGQGTLVTVSS VL: DIQMTQSPSSLSASVGDRVTITCRASQDVWGYVAWYQQKPGKAPKLLISGSRSLYSGVPSRFSGSGSGTDFTLTISSLQPEDFATYYCQQYYNYPITFGQGTKVEIKR :: 318 MFI

Consider now this further binder.
Per the records, this binder ( P14 (antibody, V domains shown) VH: EVQLVESGGGLVQPGGSLRLSCAASGFTIGDFGIHWVRQAPGKGLEWVAGIWPFGGYTYYADSVKGRFTISADTSKNTAYLQMNSLRAEDTAVYYCARFVNWDGDYMDYWGQGTLVTVSS VL: DIQMTQSPSSLSASVGDRVTITCRASQDVGFYVAWYQQKPGKAPKLLISWSSYLYSGVPSRFSGSGSGTDFTLTISSLQPEDFATYYCQQYYNYPLTFGQGTKVEIKR ) has max. MFI equal to 328 MFI
